Reference source: PubChem BioAssay AID1159580

Each item that follows carries a reported normalized growth.
test: chemical genetic growth profiling, strain panel (AID 1159580);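 also: tested at 20 µM; growth read once vehicle control cultures reached saturation at 30 °C; 1 = growth at the plate median or of vehicle wells; lower values mean less growth of the strain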
condition notes: S. cerevisiae deletion strains, growth OD, locus YLR102C, strain apc9, active compounds read low
Screen size: about 5,500 compounds; about 2,000 (36%) were called active. Not shown: some 18% with an inconclusive outcome. The list shows a part of the results.
Number only, please.

Field: example entries. Status: answers known.
INSERT INTO measurements (molecule, reported_metric, recorded_measurement) VALUES
  ('CC12CCCC(O)(C1)C1CC(C)(C)C1CC2 (stereo unspecified)', 'normalized growth', 1.01),
  ('O=C(O)CCC(=O)c1ccc(-c2ccccc2)cc1', 'normalized growth', 0.981),
  ('CCCSP(=O)(OCC)SCCC', 'normalized growth', 0.977);

Requested read-out: normalized growth. Entry: CC1(C)CC2C1CCC1(C)OC2(C)CCC1O (stereo unspecified)
1

Similarly, C[C@@H]1C[C@@H]([C@H](O)CC2CC(=O)NC(=O)C2)C(=O)[C@@H](C)C1 ?
0.0592

Then what about the molecule C#C[C@]1(O)CCC2C3CCc4cc(O)ccc4C3CC[C@@]21C (stereo partly specified) ?
1.03

* * *

test: chemical genetic growth profiling, strain panel (AID 1159580);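 also: tested at 20 µM; growth read once vehicle control cultures reached saturation at 30 °C; 1 = growth at the plate median or of vehicle wells; lower values mean less growth of the strain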
condition notes: S. cerevisiae deletion strains, growth OD, locus YBR171W, strain sec66, active compounds read low
Among all 5,500 compounds or so, about 2,000 (36%) were called active. Another 18% or so got no clear call; they are omitted. This is one part of the list.
reported metric: normalized growth
Give a plain numeric answer without units written out.

Worked set:
INSERT INTO results (compound, reported_metric, recorded_measurement) VALUES
  ('Nc1nc2ncc(CNc3ccc(C(=O)N[C@@H](CCC(=O)O)C(=O)O)cc3)nc2c(=O)[nH]1', 'normalized growth', 0.996),
  ('Nc1nc(N)c2nc(CNc3ccc(C(=O)NC(CCC(=O)O)C(=O)O)cc3)cnc2n1 (stereo not given)', 'normalized growth', 1.01),
  ('CN(Cc1cnc2nc(N)nc(N)c2n1)c1ccc(C(=O)NC(CCC(=O)O)C(=O)O)cc1 (stereo not given)', 'normalized growth', 0.94),
  ('Nc1nc2c(c(=O)[nH]1)N(C=O)C(CNc1ccc(C(=O)N[C@@H](CCC(=O)O)C(=O)O)cc1)CN2 (stereo not given in full)', 'normalized growth', 0.94);

Alright, here's another compound for you.
Would you mind telling me what normalized growth value was observed for O=C(O)c1ccc2c(c1)OCO2 ?
0.992

* * *

# normalized growth listing for each entry below
test: chemical genetic growth profiling, strain panel (AID 1159580);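 also: tested at 20 µM; growth read once vehicle control cultures reached saturation at 30 °C; 1 = growth at the plate median or of vehicle wells; lower values mean less growth of the strain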
condition notes: S. cerevisiae deletion strains, growth OD, locus YCL029C, strain bik1, active compounds read low
Out of some 5,500 compounds screened, about 2,000 (36%) were called active. Roughly 18% stayed inconclusive and do not appear here. This is one part of the list.

Some molecules with known normalized growth results, for comparison:
INSERT INTO measurements (molecule, recorded_measurement) VALUES
  ('CCCNC(C)C(=O)Nc1ccccc1C (stereo unspecified)', '1 (inactive)'),
  ('C#C[C@]1(O)CCC2C3CCc4cc(O)ccc4C3CC[C@@]21C (stereo partly specified)', '0.942 (inactive)'),
  ('CCCN(CCC)C(=O)C(CCC(=O)O)NC(=O)c1ccccc1 (stereo unspecified)', '0.985 (inactive)'),
  ('NCCCCN=C(N)N', '0.979 (inactive)');

State the recorded normalized growth for this entry: CCn1cc(C(=O)O)c(=O)c2ccc(C)nc21
0.935 (inactive)

Another molecule to check: NC(=O)c1cnccn1
1 (inactive)

Next up: OCC(S)CS (stereo unspecified)
0.983 (inactive)

Note, next up: CC1CC2C(C(O)CC3(C)C2CCC3(O)C(=O)COC(=O)CCC(=O)O)C2(C)C=CC(=O)C=C12 (stereo unspecified)
0.97 (inactive)

Same question, COc1cc(/C=C/C(=O)O)ccc1O this time
0.977 (inactive)

Entry COc1cc(/C=C/C(=O)O)cc(OC)c1OC please
1.01 (inactive)

Repeat with CCn1cc(C(=O)O)c(=O)c2cnc(N3CCNCC3)nc21
0.987 (inactive)
